Test system Beta-secretase 1 (Homo sapiens, UniProt P56817), IC50 listed for each of the compounds.

COc1cnc(C(=O)Nc2ccc(F)c([C@]3(C)C=C(CF)OC(N)=N3)c2)nc1    241 nM
COc1cnc(C(=O)Nc2ccc(F)c([C@]3(C)C=C(CF)OC(N)=N3)c2)c(C)n1    491 nM

The record that follows has no IC50 shown yet.
Which IC50 is listed for `C[C@@]1(c2cc(NC(=O)c3ncc(C#N)cc3F)ccc2F)C=C(CF)OC(N)=N1` ?
155 nM

Where do the numbers come from? From ChEMBL document CHEMBL5223187.
